Target: T1, Activin A (UniProt P08476 311-426)
T1 sequence (looked up): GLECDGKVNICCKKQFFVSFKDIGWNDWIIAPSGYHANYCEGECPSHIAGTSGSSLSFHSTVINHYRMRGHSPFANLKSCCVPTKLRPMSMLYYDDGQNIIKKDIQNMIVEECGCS
Assay: cell-based or functional assay
List of IC50, SBE-luciferase reporter in HEK293 cells values.
State just the number; it will be interpreted in µg/mL.

1) ActRIIB-B1B4 (SEQ ID NO: 117) chimera-Fc protein (Fc fusion, Tested as chimera-Fc protein; not shown: linker (if any) and Fc domain) GRGEAETRECLFFNANWELERTNQSGLERCEGEQDKRLHCYASWRNSSGSIEIVKQGCWLDDFNCYDRQECVATEENPQVYFCCCEGNFCNERFTHLPEAGGPEVTYEPPPTAPT: 0.35

Please examine the following record next.
Ask | Look up IC50, SBE-luciferase reporter in HEK293 cells for this binder: ActRIIB-A8 (SEQ ID NO: 126) chimera-Fc protein (Fc fusion, Tested as chimera-Fc protein; not shown: linker (if any) and Fc domain) GRGEAETRECIYYNANWELERTNQSGLERCEGEQDKRLHCYASWRNSSGTIELVKKGCWLDDFNCYDRQECVATEENPQVYFCCCEGNFCNERFTHLPEMEVTQPTS
Reply | 0.23

Where do the numbers come from? From patent US20250270287A1.
